- target-of-assay: ScFus1
- assay-comment: SPOT peptide array binding signal intensity (averaged, normalized) (arbitrary units (background-subtracted, floor 0; scale differs between SH3 domains)); higher = stronger binding of the SH3 domain to the peptide
Assign class by SPOT peptide array binding signal intensity: not lower than 100 means 1; lower than 100 means -1.

Exam item: decide whether the reported SPOT peptide array binding signal intensity for `TTNRGPPPLPPRANV` is at least 100.
-1
